# System: SARS-CoV-2 SL1 RNA (SL1 wt)
# Format: binding
# conditionInfo: CPMG 100 vs 5 ms; 10 μM SL1 wt, 200 μM ligand, pH 6.2
measurementType: T2 reduction [%] (%)
Give bare numbers, in %.

Examples with answers:
compound	units	T2 reduction [%]
COCCN(C)CC(=O)Nc1nc2ccc(OC)cc2s1 [A.30]	%	77.69
COc1ccc2nc(N(C)C(=O)CN(C)C)sc2c1 [A.34]	%	81.54

Record COc1ccc2nc(NC(=O)CN(C)C)sc2c1 [A.2] , field T2 reduction [%]: 79.26
